Provenance of the data: PubChem BioAssay (NCI)

test system: UACC-257 melanoma; assay: NCI tumour cell line growth inhibition, 48 h
readoutLabel: GI50

Answered cases to consult:
>>> df
                                   compound  readoutlabel  endpointvalue
0  CSC1=Nc2c(c(C)c(-c3ccccc3)n2CCCCl)C2=NC(=O)CN12          GI50        12.5 µM
1  CCc1nc(-n2c(CC)nc3ccccc3c2=O)nc(N)c1-c1ccc(Cl)cc1          GI50          13 µM
2  O=C1OCC2=C1C(c1cccc(C(F)(F)F)c1)c1cc3c(cc1N2CCO)OCO3 (centres undefined)          GI50        > 50 µM

Now, please, on to the next compound.
Exercise: # GI50 lookup, item Cc1cc(O)c(C2=NN(c3ccc(S(N)(=O)=O)cc3)C(c3ccccc3O)C2)cc1Cl (centres undefined)
Solution: 3.45 µM

###

system: RXF 393 renal; assay: NCI tumour cell line growth inhibition, 48 h
readoutLabel: TGI

Observe how each entry below is paired with its result.
>>> df
                                   molecule  readoutlabel  endpointvalue
0  COc1ccc(C(=O)Nc2ccc(S(=O)(=O)NCC(=O)O)cc2)cc1           TGI       > 100 µM
1  COc1ccc2[nH]c3c([N+](=O)[O-])ccc(Cl)c3c(=O)c2c1           TGI        32.2 µM
2      COCOc1cc(OC)c(Br)cc1C/C(=N/O)C(=O)OC           TGI       > 100 µM
3  O=S(=O)(O)c1cc(N=Nc2cc(S(=O)(=O)O)c3ccccc3c2O)ccc1/C=C/c1ccc(N=Nc2cc(S(=O)(=O)O)c3ccccc3c2O)cc1S(=O)(=O)O           TGI      > 1000 µM
4  CC(N)(Cc1c[nH]c2ccccc12)C(=O)O (centres undefined)           TGI      > 2500 µM

Exercise: Give the measured TGI of Clc1ccccc1-c1nc(-c2ccncc2)no1 .
Solution: > 100 µM

Exercise: What value of TGI has been reported for the following molecule? COc1cc2c(cc1O)[C@H](C)C(c1ccccc1OC)O2 (some centres undefined)
Solution: 93.6 µM

Exercise: Reported TGI for CCOC(=O)NC(Nc1ccc(F)c(F)c1)(C(=O)OCC)C(F)(F)F (centres undefined) : what is it?
Solution: > 100 µM

Exercise: What value of measured TGI is listed for COc1cc(-c2nc(-c3nnc(-c4ccc(F)c(Cl)c4)o3)c3ccccn23)cc(OC)c1OC ?
Solution: 7 µM

###

tested on: MALME-3M melanoma; assay: NCI tumour cell line growth inhibition, 48 h
Listing of entries alongside the reported TGI.

Observe how each entry below is paired with its result.
                                   compound        studytarget  endpointvalue
0  COc1cc(-c2nc3ccccc3[nH]2)ccc1OCC(=O)N=Nc1c(O)[nH]c2ccc(Cl)cc12  MALME-3M melanoma        2.93 µM
1      CCOC(=O)/C(=C/c1ccccc1)C(=O)c1ccccc1  MALME-3M melanoma        9.09 µM
2  COc1cccc2c1C(=O)c1c(O)c3c(c(O)c1C2=O)C[C@@](O)(C(=O)CO)C[C@@H]3OC1CC(OC(C)=O)C(OC(C)=O)C(C)O1 (stereo not given in full)  MALME-3M melanoma        2.19 µM
3  CSc1c(S(C)=O)[nH]c2cc(Br)cc(Br)c12 (stereo not given)  MALME-3M melanoma        48.8 µM
4            CN(C)Cc1cc(N=Nc2ccccc2Cl)ccc1O  MALME-3M melanoma        25.9 µM
5  CC(C)c1cccc(C(C)C)c1NC(=O)C(=O)CC(=O)CC(c1ccccc1)c1c(O)c2ccccc2oc1=O (stereo not given)  MALME-3M melanoma       > 100 µM

Exercise: What value of TGI has been reported for the following compound? C=C(C)C(=O)OC1C(C(C)CCCO)=C(CO)CC2OC(=O)C(=C)C21 (stereo not given)
Solution: 17.8 µM

Exercise: Look up TGI for this compound: CC(C)[C@](O)(C(=O)OCC1=CC[N+]2([O-])CC[C@@H](O)[C@@H]12)[C@H](C)O (stereo not given in full)
Solution: > 10000 µM

Exercise: Report TGI for CC1C(/C=C/c2ccoc2)ON2CCCC12 (stereo not given) please.
Solution: > 100 µM

Exercise: Which TGI is reported for this compound? CCCCCCCC/C=C\CCCCCCCC(=O)OC[C@]1(CO)CCC(=O)O1
Solution: > 100 µM

###

test system: SW-620 colon; assay: NCI tumour cell line growth inhibition, 48 h
Tag: Met if measured TGI is not below 5 µM, Not met if it is.

                                   compound  assignedlabel
0  COc1cc(/C=C2\N=C(c3ccccc3)N(c3nc4cc(C)c(C)cc4s3)C2=O)cc(OC)c1OC            Met
1  COc1cc(OC)cc(-c2ccc(-c3ccc(C(=N)N)s3)s2)c1        Not met
2  Cc1cc(O)c(C2=NN(c3ccc(S(N)(=O)=O)cc3)C(c3ccccc3O)C2)cc1Cl (configuration not stated)        Not met
3  C=CCOc1ccc(C2(c3ccc(OCC=C)cc3)C(=O)Nc3ccccc32)cc1            Met
4  CN(CCCCN1CCCC1)CCCCN(C)C(=O)Cc1ccc(Cl)c(Cl)c1            Met
5  [C-]#[O+].[C-]#[O+].[Ir].[O-]c1ccc2ccccc2c1N=Nc1ccccc1            Met
6  CCN(CC)CCSc1n[nH]c(-c2c[nH]c3nc(C)ccc3c2=O)n1            Met
7             O=c1c2[nH]c3ccccc3c2nc2n1CCS2            Met
8  COc1ccc2c(c1)CCC(CN1CCN(CCOC(c3ccc(F)cc3)c3ccc(F)cc3)CC1)C2O (configuration not stated)            Met
9  CCc1nc(-n2c(CC)nc3ccccc3c2=O)nc(N)c1-c1ccc(Cl)cc1            Met

Exercise: Hello, I need to know if C=C1CC23CCC4C(C)(C(=O)O)CCCC4(C)C2CCC1C3 (configuration not stated) has measured TGI not below 5 µM. Thanks!
Solution: Met

Exercise: Given the entry O=C(C[C@@]1(O)C(=O)Nc2c(Cl)ccc(Cl)c21)c1ccc(C2CC2)cc1 , answer whether its TGI meets or surpasses 5 µM.
Solution: Met

###

Recorded TGI for the following compounds
tested on: HCT-116 colon; test: NCI tumour cell line growth inhibition, 48 h

Record excerpt, results attached:
compound	TGI
CS(=O)(=O)N1CC(CCl)c2ccc(NCCN)cc21 (configuration not stated)	> 100 µM
CN(C)c1ccc(/C=C/c2ccnc3ccc4ccccc4c23)cc1	> 100 µM
OC(COc1cccc2ccccc12)CN1CCN(c2ccc(Cl)cc2)CC1 (configuration not stated)	> 100 µM
CN(C)CCn1c(=O)oc2cc(C(=O)CN3CCOCC3)ccc21	> 100 µM
Clc1ccccc1-c1nc(-c2ccncc2)no1	> 100 µM
CN1C(=O)N(C)C2C1NN=c1s/c(=C\c3c[nH]c4ccccc34)c(=O)n12 (configuration not stated)	> 100 µM
O=C(/C=c1\oc(=O)/c(=C/C(=O)c2ccc(Cl)cc2)oc1=O)c1ccc(Cl)cc1	> 100 µM
N#CC(c1ccccc1)N(CCc1ccccc1)C(=O)c1ccccc1 (configuration not stated)	> 100 µM
Cc1nc2nn(Cc3ccccc3)cc2c(=O)o1	> 100 µM
C/C1=N\NC(=O)c2ccccc2C(=O)N/N=C(\C)c2cccc1n2.O=[N+]([O-])[O-].[Zn+2]	> 100 µM

Exercise: Recorded TGI of CCOC(=O)/C(=C\c1ccnc2ccccc12)P(=O)(OCC)OCC , please.
Solution: 3.61 µM

Exercise: Need TGI of C=C1C(=O)CCC1C(=O)O (configuration not stated) , thanks.
Solution: > 100 µM

Exercise: I would be grateful if you could share the reported TGI for C=CC1(c2ccccc2Cl)N/C(=C/OCC)CO1 (configuration not stated) .
Solution: > 100 µM

Exercise: Report TGI for O=S(Nc1ccccc1)c1ccc(-c2ccccc2)cc1 (configuration not stated) please.
Solution: > 100 µM

Exercise: What measured TGI goes with COc1ccc(N2CCN(CN3CCN(c4ccc(OC)cc4)C3)C2)cc1 ?
Solution: 50 µM

Exercise: State the recorded TGI for this entry: Cc1c2cnccc2c(C)c2c1c1cc(C(=O)O)ccc1n2C
Solution: > 100 µM

###

GI50 values, listed per item
test system: LOX IMVI melanoma; assay: NCI tumour cell line growth inhibition, 48 h

Exercise: Which value of GI50 has been reported for COc1nc2c(cc1S(=O)(=O)c1ccccc1)CCc1c-2cnn1Cc1ccccc1 in the records?
Solution: > 100 µM

Exercise: Please give the measured GI50 for this compound: OC(COc1cccc2ccccc12)CN1CCN(c2ccc(Cl)cc2)CC1 (stereo not given)
Solution: 26.3 µM

Exercise: Using the record for COc1ccc(C2=CC(c3ccc(Oc4ccnc5cc(Cl)ccc45)c(OC)c3)c3c(nc(OC)[nH]c3=O)N2)cc1 (stereo not given) , report its GI50.
Solution: 4.04 µM

Exercise: Tell me the measured GI50 of O=C1OCC2=C1C(c1cccc(C(F)(F)F)c1)c1cc3c(cc1N2CCO)OCO3 (stereo not given) , please.
Solution: 2.02 µM

Exercise: Would you kindly share the measured GI50 for COc1ccc(-c2nn(-c3ccc(NC(=O)Nc4ccc(Cl)c(Cl)c4)cc3)cc2-c2ccncc2)cc1Cl ?
Solution: 2.24 µM
